The reported measurements were obtained from PubChem BioAssay (NCI).

tested on: HCC-2998 colon; assay: NCI tumour cell line growth inhibition, 48 h
Where a SMILES comes first, the peptide text is derived from it. [ ]: non-standard residue; d: D form. The star is where a group is joined. ξ: configuration not given here. NMeY = CN[C@@H](Cc1ccc(O)cc1)C(=O)O; Cbz = O=C(OCc1ccccc1)*; ξA = CC(N)C(=O)O
Reported TGI values follow for various molecules

Worked cases, TGI given:
molecule	TGI
C=C(C(=O)c1ccccc1)C(NC(C)(C)C)c1ccccc1 (stereo not drawn)	3.38 µM
O=c1[nH]c(=O)n([C@H]2C[C@@H](CO)[C@@H](O)C2)cc1I	> 100 µM
CCCCCCCCCCCCCCCCCCN(C)CC(COC)OP(=O)([O-])OCC[N+](C)(C)C (stereo not drawn)	3.07 µM
CCOC(=O)/C(C1=NCCN1C)=C(\O)c1ccccc1	> 100 µM
COc1ccc(C[C@@H](C(=O)N[C@@H](C)C(N)=O)N(C)C(=O)[C@@H]2CCCN2C(=O)[C@H](CC(C)C)NC(=O)C(C)NC(=O)OCc2ccccc2)cc1 (stereo partly drawn) (Cbz-[ξA]LP[NMeY](Me)A-NH2)	> 100 µM

Given the entry C[C@@H](NC1CCCC[C@@H]1O)c1ccccc1 (stereo partly drawn) , report its measured TGI.
> 100 µM

Given the entry CC(=O)NC1C(OCc2ccccc2)OC(CO)C(O)C1OCC(=O)NC(C(=O)NC(CCC(=O)NCCCCCC(=O)Nc1ccc2c(c1)CN1C(=O)c3ccccc3C1=N2)C(N)=O)C(C)C (stereo not drawn) , report its measured TGI.
> 100 µM

Given the entry CCOC(=O)N1c2ccccc2N(C(=O)OCC)C1CC(=O)/C=C/c1ccccc1 , report its measured TGI.
10.6 µM

* * *

tested on: U251 CNS; test: NCI tumour cell line growth inhibition, 48 h
metric: TGI (µM)
Write the number in µM without appending the unit.

Worked cases, TGI given:
molecule	TGI / µM
CC(=O)NC1C(OCc2ccccc2)OC(CO)C(O)C1OCC(=O)NC(C(=O)NC(CCC(=O)NCCCCCC(=O)Nc1ccc2c(c1)CN1C(=O)c3ccccc3C1=N2)C(N)=O)C(C)C (stereo not given)	39.2
O=S(=O)(NCCNc1nccc(-c2c(-c3ccc(F)cc3)nc3sccn23)n1)c1ccc(O)cc1	23.4

Shifting focus to the molecule that follows.
Given the entry CC(C)=CCC/C(C)=C/Cc1c2c(c3oc(-c4ccc(O)c(O)c4)c(O)c(=O)c3c1O)C=CC(C)(C)O2 , report its measured TGI.
10.7

* * *

test system: RXF 393 renal; assay: NCI tumour cell line growth inhibition, 48 h
Reported GI50 values follow for various compounds

compound	metric	test value
COc1cc(/C=C2\CC3C4CCC5=CC(=O)CC[C@]5(C)C4CC[C@]3(C)C2=O)ccc1OCCN1CCCC1 (some centres undefined)	GI50	2.24 µM
COc1ccccc1CNCCCN1C(=O)c2ccc3c4c(ccc(c24)C1=O)C(=O)N(CCCNCCCCNCCCN)C3=O	GI50	0.323 µM
CC1(C)CC[C@]23CC[C@]4(C)[C@H](CC[C@@H]5[C@@]6(C)CCCNC(C)(C)[C@@H]6CC[C@]54C)[C@H]2[C@H]1OC3	GI50	1.56 µM

Given the entry Nc1c(C(=O)Nc2cccc(Cl)c2)sc2nc3c(cc12)C(O)CCC3 (centres undefined) , report its measured GI50.
0.396 µM
